- experimentalProtocol: Plasma concentrations during 24-hour continuous intravenous infusion
- Format: in vivo, Sprague-Dawley rats
- conditionInfo: male, Sprague-Dawley, rat, plasma, iv, 30 mg/kg, male Sprague-Dawley rats; 24-hour intravenous infusion at 30 mg/kg; time 6 h; read-out: Plasma concentration, Mean
valueKind: concentration at 6 h (ng/mL)

testsmiles=O=C(O)c1cc(-c2ccc(C3CCNCC3)cc2)c2ccc(-c3ccc(C(F)(F)F)cc3)cc2c1 valuekind="concentration at 6 h" recordedmeasurement=1470

###

- experimentalProtocol: Plasma concentrations and TK parameters, 72-hour continuous intravenous infusion
- Assay type: in vivo, Sprague-Dawley rats
- conditionInfo: female, Sprague-Dawley, rat, plasma, iv, 30 mg/kg/day, female Sprague-Dawley rats; 72-hour intravenous infusion at 30 mg/kg/day; time 84 h; read-out: Plasma concentration, Mean
valueKind: concentration at 84 h (ng/mL)

testsmiles=O=C(O)c1cc(-c2ccc(C3CCNCC3)cc2)c2ccc(-c3ccc(C(F)(F)F)cc3)cc2c1 recordedmeasurement=306
